Entry source: paper doi:10.1101/2024.05.17.594634

Test system: human melanoma M14 cells
Experiment: Eight-day colony formation assay, M14
Type: cell-based
Conditions: M14; eight-day assay; mean ± SEM
Measure: IC50 (nM)
Your answer should be a plain number; it is taken to be in nM.

Please give the measured IC50 for this compound: c1ccc2sc(-c3ccc(CNc4ccc5nnnn5n4)o3)nc2c1 [Dxr2-017]
19.7

###

Test system: human CD34+ stem cells
Assay: Bone marrow stem cell (hematopoietic) colony formation assay
Type: cell-based
Details: 40 μM compound; total colonies at 8 days; mean N=2
Method: In parallel with measuring growth inhibition of cancer cell growth, we measured effect on human hematopoietic stem cells. Hematopoietic stem cells reside in the bone marrow and are the source of mature cells present in blood.[66] […] Bone marrow toxicity was measured by performing hematopoietic colony formation assays on human CD34+ stem cells. […] Total colonies at eight days were measured, thereby matching the eight-day time frame of cancer cell colony formation assays. […]
Measure: mean number of colonies, % of control, 8 day

// mean number of colonies, % of control, 8 day lookup, key: "O=C(COC(=O)c1cccs1)c1ccc2[nH]c(=O)[nH]c2c1"
97 % of control

For the compound "O=C(CCc1c[nH]c2ccccc12)N1CCSc2ccccc21" , what mean number of colonies, % of control, 8 day is on record?
105 % of control

For the compound shown here, "O=C(Cn1c(=O)oc2ccccc21)N1CCn2c1nc1ccccc12" , give the reported mean number of colonies, % of control, 8 day.
108 % of control

Need mean number of colonies, % of control, 8 day, item "c1ccc2sc(-c3ccc(CNc4ccc5nnnn5n4)o3)nc2c1"
70 % of control

Consider the compound shown here: "Cc1nnsc1C(=O)OCCCn1c(=O)[nH]c2ccccc21" What is its recorded mean number of colonies, % of control, 8 day?
109 % of control

# input compound: "c1ccc(CCc2n[nH]c(-c3ccccn3)n2)cc1" ; wanted: its mean number of colonies, % of control, 8 day
80 % of control

Fill blank: measured mean number of colonies, % of control, 8 day of the compound "O=C(Cc1n[nH]c(=O)c2ccccc12)Nn1cnc2ccccc21" is ____.
117 % of control

Please give the measured mean number of colonies, % of control, 8 day for this compound: "O=C(Nc1nnn[nH]1)c1cc(-c2ccccc2)nc2ccccc12"
93 % of control
